# measurement-protocol: Cmax in C57 mouse at 50 mg/kg, po
# Format: ADME, organism-based
# Design: dose 50 mg/kg, route oral
# condition-description: in vivo
measurement-label: Cmax (ng/mL)
State the answer as a number, implicitly in ng/mL.

Use the examples below as a reference point.
CC(C)(C)C[C@@H]1N[C@@H](C(=O)Nc2ccc(C(=O)O)cc2F)[C@H](c2cccc(Cl)c2F)[C@@]1(C#N)c1ccc(Cl)cc1F | 18000
CC(C)(C)C[C@@H]1N[C@@H](C(=O)Nc2ccc3cc(C(=O)O)ccc3c2)[C@H](c2cccc(Cl)c2F)[C@@]1(C#N)c1ccc(Cl)cc1F | 1700

Then this molecule:
# return recorded Cmax for entry `CC(C)(C)C[C@@H]1N[C@@H](C(=O)Nc2ccc(C(=O)O)cn2)[C@H](c2cccc(Cl)c2F)[C@@]1(C#N)c1ccc(Cl)cc1F`
3000

Values compiled from ChEMBL document CHEMBL2401690.
